# Tested on: HeLa
# protocol: Induction of necrosis in human HeLa cells assessed as remaining metabolic activity after 30 mins by resazurin dye-based assay
# Assay type: functional
# condition summary: 0.5 h, read-out: LC50 (the source's name)
experimental endpoint: CC50 (µM)
Give a bare numeral; the unit µM is implied.

smiles structure: COc1ccccc1C(=O)O[C@H]1C(C)=C[C@]23C(=O)[C@@H](C=C(CO)[C@@H](O)[C@]12O)[C@H]1[C@@H](C[C@H]3C)C1(C)C
experimental endpoint: CC50
value unit: µM
reported: 220
--
smiles structure: CC1=C[C@]23C(=O)[C@@H](C=C(CO)[C@@H](O)[C@]2(O)[C@H]1OC(=O)c1ccccc1Br)[C@H]1[C@@H](C[C@H]3C)C1(C)C
experimental endpoint: CC50
value unit: µM
reported: 141
--
smiles structure: CC1=C[C@]23C(=O)[C@@H](C=C(CO)[C@@H](O)[C@]2(O)[C@H]1OC(=O)c1c(Cl)cccc1Cl)[C@H]1[C@@H](C[C@H]3C)C1(C)C
experimental endpoint: CC50
value unit: µM
reported: 59
--
smiles structure: COc1cccc(NCc2ccccc2)c1C(=O)O[C@H]1C(C)=C[C@]23C(=O)[C@@H](C=C(CO)[C@@H](O)[C@]12O)[C@H]1[C@@H](C[C@H]3C)C1(C)C
experimental endpoint: CC50
value unit: µM
reported: 400
--
smiles structure: CC1=C[C@]23C(=O)[C@@H](C=C(CO)[C@@H](O)[C@]2(O)[C@H]1OC(=O)c1ccccc1C)[C@H]1[C@@H](C[C@H]3C)C1(C)C
experimental endpoint: CC50
value unit: µM
reported: 115

stdin: Looking for the measured CC50 of CC1=C[C@]23C(=O)[C@@H](C=C(CO)[C@@H](O)[C@]2(O)[C@H]1OC(=O)c1c(C)cccc1C)[C@H]1[C@@H](C[C@H]3C)C1(C)C , can you help?
stdout: 97

stdin: Reported CC50 for CNc1cccc(Cl)c1C(=O)O[C@H]1C(C)=C[C@]23C(=O)[C@@H](C=C(CO)[C@@H](O)[C@]12O)[C@H]1[C@@H](C[C@H]3C)C1(C)C : what is it?
stdout: 145

stdin: // returns reported CC50 for input CC1=C[C@]23C(=O)[C@@H](C=C(CO)[C@@H](O)[C@]2(O)[C@H]1OC(=O)c1c(C)cccc1Cl)[C@H]1[C@@H](C[C@H]3C)C1(C)C
stdout: 126

stdin: # get_value(readout='CC50', item= CC1=C[C@]23C(=O)[C@@H](C=C(CO)[C@@H](O)[C@]2(O)[C@H]1OC(=O)c1c(C)cccc1N)[C@H]1[C@@H](C[C@H]3C)C1(C)C )
stdout: 146

stdin: Would you mind telling me what CC50 value was observed for CC1=C[C@]23C(=O)[C@@H](C=C(CO)[C@@H](O)[C@]2(O)[C@H]1OC(=O)c1ccccc1-c1ccccc1)[C@H]1[C@@H](C[C@H]3C)C1(C)C ?
stdout: 77

stdin: What CC50 value was documented for this compound, CC1=C[C@]23C(=O)[C@@H](C=C(CO)[C@@H](O)[C@]2(O)[C@H]1OC(=O)c1c(C)cccc1NCc1ccccc1)[C@H]1[C@@H](C[C@H]3C)C1(C)C ?
stdout: 187

stdin: Look up CC50: CC1=C[C@]23C(=O)[C@@H](C=C(CO)[C@@H](O)[C@]2(O)[C@H]1OC(=O)c1c(N)cccc1Cl)[C@H]1[C@@H](C[C@H]3C)C1(C)C
stdout: 185

stdin: Dear colleague, I am looking for the recorded CC50 of the following compound: CNc1cccc(C)c1C(=O)O[C@H]1C(C)=C[C@]23C(=O)[C@@H](C=C(CO)[C@@H](O)[C@]12O)[C@H]1[C@@H](C[C@H]3C)C1(C)C
stdout: 105

stdin: Reported CC50, compound CCCCCCCCCCCCNc1ccccc1C(=O)O[C@H]1C(C)=C[C@]23C(=O)[C@@H](C=C(CO)[C@@H](O)[C@]12O)[C@H]1[C@@H](C[C@H]3C)C1(C)C : ____
stdout: 400

stdin: Which CC50 reading was recorded for the compound COc1cccc(OC)c1C(=O)O[C@H]1C(C)=C[C@]23C(=O)[C@@H](C=C(CO)[C@@H](O)[C@]12O)[C@H]1[C@@H](C[C@H]3C)C1(C)C ?
stdout: 400

stdin: What value of measured CC50 is listed for CC1=C[C@]23C(=O)[C@@H](C=C(CO)[C@@H](O)[C@]2(O)[C@H]1OC(=O)c1ccccc1N)[C@H]1[C@@H](C[C@H]3C)C1(C)C ?
stdout: 199

---

# tested system: Protein kinase C delta type (Homo sapiens, UniProt Q05655)
# Sequence (Q05655 whole entry): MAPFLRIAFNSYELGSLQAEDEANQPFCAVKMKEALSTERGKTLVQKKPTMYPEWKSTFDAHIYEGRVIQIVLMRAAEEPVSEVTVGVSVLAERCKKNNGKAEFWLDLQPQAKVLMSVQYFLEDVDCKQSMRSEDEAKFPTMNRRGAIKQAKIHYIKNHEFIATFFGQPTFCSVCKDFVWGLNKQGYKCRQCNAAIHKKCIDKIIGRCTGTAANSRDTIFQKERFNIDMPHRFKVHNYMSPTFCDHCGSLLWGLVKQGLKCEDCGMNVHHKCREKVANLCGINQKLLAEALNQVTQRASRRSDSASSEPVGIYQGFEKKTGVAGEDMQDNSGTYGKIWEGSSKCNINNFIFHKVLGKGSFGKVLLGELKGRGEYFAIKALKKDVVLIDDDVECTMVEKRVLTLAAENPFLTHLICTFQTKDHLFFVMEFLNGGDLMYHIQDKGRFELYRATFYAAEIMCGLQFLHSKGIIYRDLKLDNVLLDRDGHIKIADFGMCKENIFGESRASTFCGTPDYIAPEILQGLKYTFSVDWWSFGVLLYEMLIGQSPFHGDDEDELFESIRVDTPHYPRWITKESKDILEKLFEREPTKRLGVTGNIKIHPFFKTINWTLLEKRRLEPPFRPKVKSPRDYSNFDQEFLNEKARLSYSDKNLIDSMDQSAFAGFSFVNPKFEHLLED
# protocol: Activation of PKCdelta (unknown origin) after 40 mins
experimental endpoint: pEC50
The quantity pEC50 is defined as the negative base-10 logarithm of the molar concentration.

Use the examples below as a reference point.
smiles structure: CC1=C[C@]23C(=O)[C@@H](C=C(CO)[C@@H](O)[C@]2(O)[C@H]1OC(=O)c1ccccc1-c1ccccc1)[C@H]1[C@@H](C[C@H]3C)C1(C)C
experimental endpoint: pEC50
reported: 8.48
--
smiles structure: CC1=C[C@]23C(=O)[C@@H](C=C(CO)[C@@H](O)[C@]2(O)[C@H]1OC(=O)c1ccccc1)[C@H]1[C@@H](C[C@H]3C)C1(C)C
experimental endpoint: pEC50
reported: 8.21
--
smiles structure: CC1=C[C@]23C(=O)[C@@H](C=C(CO)[C@@H](O)[C@]2(O)[C@H]1OC(=O)c1c(Cl)cccc1Cl)[C@H]1[C@@H](C[C@H]3C)C1(C)C
experimental endpoint: pEC50
reported: 7.70
--
smiles structure: COc1ccccc1C(=O)O[C@H]1C(C)=C[C@]23C(=O)[C@@H](C=C(CO)[C@@H](O)[C@]12O)[C@H]1[C@@H](C[C@H]3C)C1(C)C
experimental endpoint: pEC50
reported: 7.59
--
smiles structure: CC1=C[C@]23C(=O)[C@@H](C=C(CO)[C@@H](O)[C@]2(O)[C@H]1OC(=O)c1ccccc1Br)[C@H]1[C@@H](C[C@H]3C)C1(C)C
experimental endpoint: pEC50
reported: 8.42
--
smiles structure: CNc1ccccc1C(=O)O[C@H]1C(C)=C[C@]23C(=O)[C@@H](C=C(CO)[C@@H](O)[C@]12O)[C@H]1[C@@H](C[C@H]3C)C1(C)C
experimental endpoint: pEC50
reported: 8.60

// switching to the query compound
stdin: Reported pEC50, compound CC(=O)Nc1cccc(C)c1C(=O)O[C@H]1C(C)=C[C@]23C(=O)[C@@H](C=C(CO)[C@@H](O)[C@]12O)[C@H]1[C@@H](C[C@H]3C)C1(C)C : ____
stdout: 6.01

---

# protocol: Immunostimulatory activity in polymorphonuclear leukocytes (unknown origin) assessed as induction of oxidative burst after 40 mins by fluorescence assay relative to ingenol 3-angelate
# Format: functional
experimental endpoint: Emax (%)
Express the result in % but write the number alone.

Consider the following illustrative entries.
smiles structure: CC1=C[C@]23C(=O)[C@@H](C=C(CO)[C@@H](O)[C@]2(O)[C@H]1OC(=O)c1ccccc1C)[C@H]1[C@@H](C[C@H]3C)C1(C)C
value unit: %
Emax: 107
//
smiles structure: CC1=C[C@]23C(=O)[C@@H](C=C(CO)[C@@H](O)[C@]2(O)[C@H]1OC(=O)c1ccccc1C(C)C)[C@H]1[C@@H](C[C@H]3C)C1(C)C
value unit: %
Emax: 120
//
smiles structure: CC(=O)Nc1cccc(C)c1C(=O)O[C@H]1C(C)=C[C@]23C(=O)[C@@H](C=C(CO)[C@@H](O)[C@]12O)[C@H]1[C@@H](C[C@H]3C)C1(C)C
value unit: %
Emax: 113
//
smiles structure: CC1=C[C@]23C(=O)[C@@H](C=C(CO)[C@@H](O)[C@]2(O)[C@H]1OC(=O)c1c(Cl)cccc1Cl)[C@H]1[C@@H](C[C@H]3C)C1(C)C
value unit: %
Emax: 123
//
smiles structure: CC1=C[C@]23C(=O)[C@@H](C=C(CO)[C@@H](O)[C@]2(O)[C@H]1OC(=O)c1c(C)cccc1N)[C@H]1[C@@H](C[C@H]3C)C1(C)C
value unit: %
Emax: 117
//
smiles structure: CC1=C[C@]23C(=O)[C@@H](C=C(CO)[C@@H](O)[C@]2(O)[C@H]1OC(=O)c1ccccc1Oc1ccccc1)[C@H]1[C@@H](C[C@H]3C)C1(C)C
value unit: %
Emax: 98
//
smiles structure: CC1=C[C@]23C(=O)[C@@H](C=C(CO)[C@@H](O)[C@]2(O)[C@H]1OC(=O)c1ccccc1NCc1ccccc1)[C@H]1[C@@H](C[C@H]3C)C1(C)C
value unit: %
Emax: 127
//
smiles structure: COc1ccccc1C(=O)O[C@H]1C(C)=C[C@]23C(=O)[C@@H](C=C(CO)[C@@H](O)[C@]12O)[C@H]1[C@@H](C[C@H]3C)C1(C)C
value unit: %
Emax: 107

stdin: Request the reported Emax associated with CNc1cccc(Cl)c1C(=O)O[C@H]1C(C)=C[C@]23C(=O)[C@@H](C=C(CO)[C@@H](O)[C@]12O)[C@H]1[C@@H](C[C@H]3C)C1(C)C
stdout: 124

stdin: Form field: reported Emax of CCCCCCCCCCCCCCCCNc1ccccc1C(=O)O[C@H]1C(C)=C[C@]23C(=O)[C@@H](C=C(CO)[C@@H](O)[C@]12O)[C@H]1[C@@H](C[C@H]3C)C1(C)C
stdout: 94

Ref: ChEMBL document CHEMBL3102768
